Just for reference, paper PMC9518264 is where these values come from.

Test system: HOP-92
Assay protocol: cells
Assay type: cell-based
Protocol conditions: Homo sapiens; HOP-92; 10 μM; read-out: growth inhibition % (GI%)
In this section, each of the compounds is paired with its reported inhibition at 10 µM.

Please review the entries below; each comes with its answer.
Smiles repr | Measured result
O=C(CSc1nc2ccccc2c(=O)n1-c1ccccc1)NN=Cc1ccc(N2CCOCC2)cc1 | 18.7%
CN1CCN(c2ccc(C=NNC(=O)CSc3nc4ccccc4c(=O)n3-c3ccc(Cl)cc3)cc2)CC1 | < 15%
O=C(CSc1nc2ccccc2c(=O)n1-c1ccc(Cl)cc1)NN=Cc1ccc(N2CCOCC2)cc1 | < 15%
COc1ccc(Oc2ccc(C=NNC(=O)CSc3nc4ccccc4c(=O)n3-c3ccccc3)cc2)cc1 | < 15%
O=C(CSc1nc2ccccc2c(=O)n1-c1ccc(Cl)cc1)NN=Cc1ccc(Oc2ccc(Br)cc2)cc1 | < 15%
O=C(CSc1nc2ccccc2c(=O)n1-c1ccccc1)NN=Cc1ccc(N2CCCCC2)cc1 | 19.5%

Query :: Can you share its inhibition at 10 µM? I mean this compound: CN1CCN(c2ccc(C=NNC(=O)CSc3nc4ccccc4c(=O)n3-c3ccccc3)cc2)CC1
Result :: < 15%
